test: soluble on expression in E. coli; label from the status in PepcDB or PDB records
Assay Readout: soluble on expression in E. coli

Before answering, review these 4 worked examples.
What value of measured soluble on expression in E. coli is listed for MIQFKDSYKHYGANGREVTALQPLNLEIRAGEVFGIIGHSGAGKSTMLRMINRLEEPSGGHLLINGQDITVLDRMGLRALRRQIGMIFQHFNLLSSYTVAGNVAFPLKLTGASDAKINARVAELLAWVGLEAHANTYPAQLSGGQKQRVGIARALATRPQILLCDEVTSALDPQTTSTVLQLLARINRELGLTIVLITHEMDVIRRICDRVAVLDTGRLVEIGLVTDVFLHPQHPTTRSFVMETEHIDTSALDQDFALVKGRIVRLTFIGTDTYLPLLGRVARETGVDYNILSGRIDRIKETPYGQLTVALSGGDPVAAQAAFAAAGIHIEELRA ? not soluble

What value of measured soluble on expression in E. coli is listed for MGSSHHHHHHSSGLVPRGSHMFLTRRDPPLSSFWTKVQYQRLKELNASGEQLEMGFSDALSRDRAFQGIEHQLMSQGKRHLEQLRTVKHRPALLELEEKLAKALHQQGFVQVVTPTIITKSALAKMTIGEDHPLFSQVFWLDGKKCLRPMLAPNLYTLWRELERLWDKPIRIFEIGTCYRKESQGAQHLNEFTMLNLTELGTPLEERHQRLEDMARWVLEAAGIREFELVTESSVVYGDTVDVMKGDLELASGAMGPHFLDEKWEIFDPWVGLGFGLERLLMIREGTQHVQSMARSLSYLDGVRLNIN ? soluble

What value of measured soluble on expression in E. coli is listed for MGSDKIHHHHHHMRVFIIHLSPKTCQNFSLKETHITPLLESLKLQGISYEIFDAIYSKISPTQLHPLILEHLHPSFMVEDLWAFCKNKKHPPCALKNFFYAIKHCGKRMGFGELGCYASHYSLWQKCIELNEAICILEDDIIIKDRFKESLEFCRHHINELGYIRLMHLEENVAKQKTPVKGVSQILNFKDGIGTQGYVLAPKAAQKLLKYSAKEWVMPIDCVMDRHYWHGVKNYVLEEFAIACDGMNAQNSNTEKQRPKKLPLSIRIGRSLHKSTIKFLDKVFRYSPKLIRIGKH ? not soluble

What value of measured soluble on expression in E. coli is listed for MEIGDVSTGYLEDALIEFSGRSKRRRLSFNGAEDKPDNDLDHSQNHWGLSENYSCTSSQFAEKNDYDEKKRVVYPFGVVKPGGREEDITLNDINKRILMPSARPVRHPVGDFACRPCVSADGPGLSGKAVVAFTKIQTLGRGTITIIRTKG ? soluble

Continuing:
What value of measured soluble on expression in E. coli is listed for MSHPWRSRGEKRTIMFGYTPSDTILKYLKDMRDLINRAILNAYSIARSNDDSLPSPITLRRSLKDYYDNNVAYAKHHINPVCRTAIAMLRSYKKNNGRLKVVKAKRLAMRIDSELAKIEDNRLRITIRPNVYEYVDIVDRNKKYSEYSKYPISEVLLTDNRVYITFITGSDDKPVIANNIIGFDLNFKSVDYTVIKDNRIAYVDSIDTYDIAKTQRDYERKRRKIQKHIRNPAKRIRKLKEAKHRQRNIVRDKLQKLTTNIVKNNEDKTFVFEDLTNIKKKGKKHKDHKRDGQSSKRFRTDINRWPYRLFQMFVEYKSKNETLYVDPEGTSSECPVCGGILEHPIWKMSKCDNCGATFDRDRLSSLSIAVRGLHLCGTPFSVSGSASWDSMKDNYLYR ? not soluble

###

assay: soluble on expression in E. coli; label from the status in PepcDB or PDB records
Assay Readout: soluble on expression in E. coli

Before answering, review these 6 worked examples.
What value of measured soluble on expression in E. coli is listed for MSLASLRVLALACLPLFAVLHADAKTLLGKVKRATGMGVGEGPSVAKKPKYTATVPGFTPPSGDQRMNEFMAVDTSGEFMRHLYIEEGRTVCASATSRNRRPTSESPHSDDVVVVEGMLRGRPETRVHAMFDGFQGRHSAMWLAQNVMNYLNDLRDVNEEEITRQFERMDGDLRAANLPGGSSALIIFVRYEKKPTEARVVGRQIVPEGAKEFTSVAEALGGPLMPVVAMNFRRDPRAAKGIYTIHVASLGNSRCVLKSGRTAIHLSTPHTASSHKERHRVQAAGGVFTTVNGELLLGGVVPMTRAFGSFDFKKGGQGKLQQDLVSAVPDVTTFFAYPGDDEGHHHHHH ? not soluble

What value of measured soluble on expression in E. coli is listed for MAHHHHHHMGTLEAQTQGPGSMSVSAAPSATSIDRYRRITKLGEGTYGEVYKAIDTVTNETVAIKRIRLEHEEEGVPGTAIREVSLLKELQHRNIIELKSVIHHNHRLHLIFEYAENDLKKYMDKNPDVSMRVIKSFLYQLINGVNFCHSRRCLHRDLKPQNLLLSVSDASETPVLKIGDFGLARAFGIPIRQFTHEIITLWYRPPEILLGSRHYSTSVDIWSIACIWAEMLMKTPLFPGDSEIDQLFKIFEVLGLPDDTTWPGVTALPDWKQSFPKFRGKTLKRVLGALLDDEGLDLLTAMLEMDPVKRISAKNALEHPYFSHNDFDP ? soluble

What value of measured soluble on expression in E. coli is listed for QTFSEEDHAILASYFPIVDGIAALIGEHCEIVLHSLEFLENSAIYIANGHNTDRKIGSPLTDKALKSLHQMQTDSVSKPYFTRLKGGILMKSITIAIRNSKQHVIGFICININLDVPTAQFLTSFIPRTQDDEN ? not soluble

What value of measured soluble on expression in E. coli is listed for MIRFARPKPIIDSVSYNLLQKCYASGTPKGKSKLKTGQSLKRNKLTIKKGGGNGGGRGGDEVDKGKGRISDQCINAPCPVRYLRPKEREREARREKLGLISKARQKEIDFQKKGGSFTMGVTTAPMRIGTPGLDYISLGIFTEDELPKYKVTVEDGIRLAKEYSRVLMREHRARRVAEISLMKMRNAAVEALPENLKKAALVRDLTPFPVSRGTVRLLHLLKGIWRGL ? soluble

What value of measured soluble on expression in E. coli is listed for MPKLGIKPLRRQQLIDATLRSISERGLQNTTIVSISKIAGMSSGIISHYFGGKKELIEETVSYLLDQLQQSLLERITEENPPAHIRLNLIVEANFTEFQRSLLATKTWLSFWAMSMHDPAMARLQSINSNRLHSNLLFSFKELLDPESAANAAKQTAAMIDGFWLRSALSENSEQEFIAAELLCKKFINDVIKQEISNASN ? not soluble

What value of measured soluble on expression in E. coli is listed for SRRLEDLHPDLQPLAHSFLRRCTDAGLDVLIYCTYRSGAEQDQLYAQGRKGSPGPIVTNARAGQSAHNFTIQNRPAARAFDAVPMVGGKPQWDQKHPHWQIMGRIGTELG ? not soluble

Turning now to a further sequence:
What value of measured soluble on expression in E. coli is listed for MFLQHNNQLICNLEKMGLTENEAKAYVGLVSLGEATAREVHELTNVPRAKIYEVLKVLAKRGYLEVRQGSPTYFRAVDPKQVIGKIKDEFINCAIETLDQLNELSYELPRTSPVWCIQSEWGIKNRIREILNGVKEELIVFSSSPRFFQEFEAELKKLEKTCQLTFIISEPEKFESFPFEFRETTKEFREFLNNIVIDGIRYDEEFFMIADGKESIGVHSAGDKREAVVIKLPVVCYLQKMIYDRVLEPSFVKKNRKSA ? not soluble

###

assay: soluble on expression in E. coli; label from the status in PepcDB or PDB records
Assay Readout: soluble on expression in E. coli

What value of measured soluble on expression in E. coli is listed for MSWTGRLQCTAAFRNGRTVILDSYNEGALKLMRPVYLNSTYPTLYLVHVGGGYVDGDSYDMEISLEPSARLMVTTQSAAKIYKTPSTPVRQYTRFSLGEQSVLEYFPDPTIAYEHARFVQETTVYITSSSTVVYGEIITPGWSESGELFRYDWIRSKLKVYQDEALVLFDHLYLDSRQHLTSMLQLGGYTHVGSLVALSPFITKEVLERFNQFMEEMPQEVRCGFSAAAVPGFSVRILAYETSAIEAIFQRVQQFIRQQCGEKTPVCWRKY ? not soluble

What value of measured soluble on expression in E. coli is listed for MNDFTTEIVQTLVTKGDLNELFRSHLEKAINTLLRTELTAFLDYEKYDRTGFNSGNSRNGSYFRSIKTEYGELTLEIPRDRNGEFKQQTLPAYKRTNDTLETTIIHLFEKGVTMSEIADLIEKMYGHHYTPQTMSNMTKVLTEEVNAFKSRALNDKYVAIFMDATYIPLKRQTVSKEAIYIAIGIREDGTKEVLSYAIAPTESTYVWNELLQDINSRGVQEVLLFITDGLKGMKDTIHQIYPKAKYQHCCIHVSRNIAHKVRVKDRKEICDDFKAVYQANSKEEANTFLSGMIEKWKKNYPKVTQSLIENQDLLTFYDFPPSIRRTIYSTNLIESFNKQIKRYSRRKEQFQNEESLERFLVSIFDTYNQKFLNRSHKGFQQVTDTLVSMFTE ? not soluble
